- experiment_notes: Protein binding in mouse plasma assessed as free fraction
- Assay type: ADME, cell-free
parameter_measured: fraction unbound

* CO[C@@H](CNC(=O)[C@H](NC(=O)[C@H](O)[C@H](C)O)[C@H](O)c1cncn1C)[C@H](O)[C@H](O)C(=O)N(C)[C@@H](Cc1ccccc1)C(=O)NCC(=O)N[C@H](C(=O)N[C@@H](CO)C(=O)N[C@H](C(=O)N[C@H](C(=O)N[C@@H](CC(=O)O)C(=O)N1CCC[C@H]1C(=O)NCc1cc(=O)c(O)cn1O)C(C)(C)C)C(C)(C)O)C(C)(C)O | 0.51

###

- experiment_notes: Metabolic stability in mouse kidney assessed as parent compound remaining measured after 4 hrs by UPLC-MS analysis
- Assay type: ADME, tissue-based
- conditions: read-out: Stability
parameter_measured: remaining at 4 h (%)

- CO[C@@H](CNC(=O)[C@H](NC(=O)[C@H](O)[C@H](C)O)[C@H](O)c1cncn1C)[C@H](O)[C@H](O)C(=O)N(C)[C@@H](Cc1ccc(F)cc1)C(=O)NCC(=O)N[C@H](C(=O)N[C@@H](CO)C(=O)N[C@H](C(=O)N[C@H](C(=O)N[C@@H](CO)C(=O)NCc1cc(=O)c(O)cn1O)C(C)(C)C)C(C)(C)O)C(C)(C)O: 28
- CO[C@@H](CNC(=O)[C@H](NC(=O)[C@H](O)[C@H](C)O)[C@H](O)c1cncn1C)[C@H](O)[C@H](O)C(=O)N(C)[C@@H](Cc1ccccc1)C(=O)NCC(=O)N[C@H](C(=O)N[C@@H](CO)C(=O)N[C@H](C(=O)N[C@H](C(=O)N[C@@H](CO)C(=O)N[C@@H](CCC(=O)NCc1cc(=O)c(O)cn1O)C(=O)O)C(C)(C)C)C(C)(C)O)C(C)(C)O: 81
- CO[C@@H](CNC(=O)[C@H](NC(=O)[C@H](O)[C@H](C)O)[C@H](O)c1cncn1C)[C@H](O)[C@H](O)C(=O)N(C)[C@@H](Cc1ccc(F)cc1)C(=O)NCC(=O)N[C@H](C(=O)N[C@@H](CO)C(=O)N[C@H](C(=O)N[C@H](C(=O)N[C@@H](CO)C(=O)NCCN)C(C)(C)C)C(C)(C)O)C(C)(C)O: 92
